- Test system: CAL-148
- Test description: normalised response (% of control), CellTox Green; higher = less cell death (100 = DMSO, 0 = benzethonium chloride kill control)
- Test conditions: incubation time: 72 h
Parameter: normalised response. Scope: all listed entries.
Give the value, in units of %, as a plain number.

Here is how some molecules turned out for normalised response.
Inquiry: Recall the reported normalised response of CC[C@H](Nc1ncnc2[nH]cnc12)c1nc2cccc(F)c2c(=O)n1-c1ccccc1 [GS-1101] (100 nM) when tested on CAL-148.
Reply text: 102

Inquiry: Recall the reported normalised response of C[C@H]1C[C@@H]2[C@H]([C@@H](O)C[C@@]3(C)[C@H]2CC[C@]3(O)C(=O)CO)[C@@]2(C)C=CC(=O)C=C12 [Methylprednisolone] (1000 nM) when tested on CAL-148.
Reply text: 107

Inquiry: Recall the reported normalised response of Nc1ncn([C@H]2C[C@H](O)[C@@H](CO)O2)c(=O)n1 [Decitabine] (10000 nM) when tested on CAL-148.
Reply text: 95.5

Further cases:
Inquiry: Recall the reported normalised response of CCc1cncnc1N1CCN(Cc2nc3ccc(C(F)(F)F)cc3[nH]2)CC1 (10000 nM) when tested on CAL-148.
Reply text: 103

---

Parameter: normalised viability. Scope: all listed entries.
- Test system: MDA-MB-468
- Test description: normalised viability (% of control), CellTiter-Blue; higher = more viable cells (about 100 = DMSO control)
- Test conditions: 10000 nM; incubation time: 72 h
Give the value, in units of %, as a plain number.

Here is how some compounds turned out for normalised viability.
Inquiry: Tell me its normalised viability given CCc1cncnc1N1CCN(Cc2nc3ccc(C(F)(F)F)cc3[nH]2)CC1 as the entry.
Reply text: 103

Inquiry: Tell me its normalised viability given C=CC(=O)Nc1cc2c(Nc3ccc(F)c(Cl)c3)ncnc2cc1OCCCN1CCOCC1 as the entry.
Reply text: 1.77

Inquiry: Tell me its normalised viability given COc1cc([C@@H]2c3cc4c(cc3[C@@H](O[C@@H]3O[C@@H]5CO[C@@H](c6cccs6)O[C@H]5[C@H](O)[C@H]3O)[C@H]3COC(=O)[C@H]23)OCO4)cc(OC)c1O [Teniposide] as the entry.
Reply text: 15.6

Further cases:
Inquiry: Tell me its normalised viability given O=C(Cc1ccc(-c2ccc(OCCN3CCOCC3)cc2)cn1)NCc1ccccc1 as the entry.
Reply text: 51.8

---

- Tested on: MDA-MB-231
- Test description: normalised viability (% of control), CellTiter-Blue; higher = more viable cells (about 100 = DMSO control)
- Test conditions: 10000 nM; incubation time: 72 h
Measured property: normalised viability (%)
Give the value, in units of %, as a plain number.

Inquiry: Tell me its normalised viability given Cc1ccc(-c2cc(C(F)(F)F)nn2-c2ccc(S(N)(=O)=O)cc2)cc1 [Celecoxib] as the entry.
Reply text: 99.6

Further cases:
Inquiry: Tell me its normalised viability given O=C(Cc1ccc(-c2ccc(OCCN3CCOCC3)cc2)cn1)NCc1ccccc1 [KX2-391] as the entry.
Reply text: 16.3

Inquiry: Tell me its normalised viability given CCCCC(=O)OCC(=O)[C@]1(O)Cc2c(O)c3c(c(O)c2[C@@H](O[C@H]2C[C@H](NC(=O)C(F)(F)F)[C@H](O)[C@H](C)O2)C1)C(=O)c1c(OC)cccc1C3=O [Valrubicin] as the entry.
Reply text: 19.4

Inquiry: Tell me its normalised viability given N#Cc1ccc(C(c2ccc(C#N)cc2)n2cncn2)cc1 [Letrozole] as the entry.
Reply text: 95.5

Inquiry: Tell me its normalised viability given CC[C@H](Nc1ncnc2[nH]cnc12)c1nc2cccc(F)c2c(=O)n1-c1ccccc1 [CAL-101] as the entry.
Reply text: 80.5

---

- Tested on: HCC1937
- Test description: normalised response (% of control), CellTiter-Glo; higher = more viable cells (100 = DMSO, 0 = benzethonium chloride kill control)
- Test conditions: incubation time: 72 h
Measured property: normalised response

Inquiry: Recall the reported normalised response of CC(=O)Nc1cccc(-n2c(=O)n(C3CC3)c(=O)c3c(Nc4ccc(I)cc4F)n(C)c(=O)c(C)c32)c1 [Trametinib] (250 nM) when tested on HCC1937.
Reply text: 66.5%

Inquiry: Recall the reported normalised response of CC[C@@H]1C(=O)N(C)c2cnc(Nc3ccc(C(=O)NC4CCN(C)CC4)cc3OC)nc2N1C1CCCC1 [BI 2536] (1000 nM) when tested on HCC1937.
Reply text: 74.7%

Inquiry: Recall the reported normalised response of COc1cc2c(Oc3ccc4[nH]c(C)cc4c3F)ncnc2cc1OCCCN1CCCC1 [Cediranib] (1000 nM) when tested on HCC1937.
Reply text: 91.7%

Inquiry: Recall the reported normalised response of O=C(Cc1ccc(-c2ccc(OCCN3CCOCC3)cc2)cn1)NCc1ccccc1 [KX2-391] (10000 nM) when tested on HCC1937.
Reply text: 69.1%

Inquiry: Recall the reported normalised response of CCCCC(=O)OCC(=O)[C@]1(O)Cc2c(O)c3c(c(O)c2[C@@H](O[C@H]2C[C@H](NC(=O)C(F)(F)F)[C@H](O)[C@H](C)O2)C1)C(=O)c1c(OC)cccc1C3=O [Valrubicin] (5000 nM) when tested on HCC1937.
Reply text: 50.2%

We next turn to a different compound, shown below.
Inquiry: Recall the reported normalised response of CNC(=O)c1cc(Oc2ccc(NC(=O)Nc3cc(C(C)(C)C)nn3-c3ccc4ncccc4c3)c(F)c2)ccn1 [Rebastinib] (1000 nM) when tested on HCC1937.
Reply text: 99.8%

---

- Tested on: HCC1937
- Test description: normalised viability (% of control), CellTiter-Blue; higher = more viable cells (100 = DMSO, 0 = benzethonium chloride kill control)
- Test conditions: 1 nM; incubation time: 72 h
Measured property: normalised viability (%)
Give the value, in units of %, as a plain number.

Inquiry: Tell me its normalised viability given C[C@H]1C[C@@H]2[C@H]([C@@H](O)C[C@@]3(C)[C@H]2CC[C@]3(O)C(=O)CO)[C@@]2(C)C=CC(=O)C=C12 [Methylprednisolone] as the entry.
Reply text: 83.7

We next turn to a different compound, shown below.
Inquiry: Tell me its normalised viability given NCCCNCCSP(=O)(O)O [Amifostine] as the entry.
Reply text: 91.8

---

Parameter: drug sensitivity score. Scope: all listed entries.
- System: CAL-120
- Test description: drug sensitivity score (DSS), CellTox Green (DSS (AUC-based score)); higher = stronger drug effect (viability inhibition or cytotoxicity); extreme values may be limits of the assay
- Test conditions: incubation time: 72 h
A bare number is all that is needed in reply.

Inquiry: Tell me its drug sensitivity score given C=CC(=O)Nc1cc2c(Nc3ccc(F)c(Cl)c3)ncnc2cc1OCCCN1CCOCC1 as the entry.
Reply text: 2.34

Further cases:
Inquiry: Tell me its drug sensitivity score given Nc1ccccc1NC(=O)c1ccc(CNC(=O)OCc2cccnc2)cc1 as the entry.
Reply text: 0

Inquiry: Tell me its drug sensitivity score given CC[C@@H]1C(=O)N(C)c2cnc(Nc3ccc(C(=O)NC4CCN(C)CC4)cc3OC)nc2N1C1CCCC1 as the entry.
Reply text: 1.97

Inquiry: Tell me its drug sensitivity score given CC1=C(/C=C/C(C)=C/C=C/C(C)=C/C(=O)O)C(C)(C)CCC1 as the entry.
Reply text: 0

Inquiry: Tell me its drug sensitivity score given O=C(O)C1(C(=O)O)CCC1.[NH2-].[NH2-].[Pt+2] as the entry.
Reply text: 0

Inquiry: Tell me its drug sensitivity score given CCc1cncnc1N1CCN(Cc2nc3ccc(C(F)(F)F)cc3[nH]2)CC1 as the entry.
Reply text: 0

Inquiry: Tell me its drug sensitivity score given C=CCc1cccc(/C=N/NC(=O)CN2CCN(Cc3ccccc3)CC2)c1O as the entry.
Reply text: 0

Inquiry: Tell me its drug sensitivity score given CC[C@H](Nc1ncnc2[nH]cnc12)c1nc2cccc(F)c2c(=O)n1-c1ccccc1 as the entry.
Reply text: 0

Inquiry: Tell me its drug sensitivity score given CCCCC(=O)OCC(=O)[C@]1(O)Cc2c(O)c3c(c(O)c2[C@@H](O[C@H]2C[C@H](NC(=O)C(F)(F)F)[C@H](O)[C@H](C)O2)C1)C(=O)c1c(OC)cccc1C3=O as the entry.
Reply text: 0.113

Inquiry: Tell me its drug sensitivity score given Oc1ncc(N(CCCl)CCCl)c(O)n1 as the entry.
Reply text: 0

Inquiry: Tell me its drug sensitivity score given CC(=O)Nc1cccc(-n2c(=O)n(C3CC3)c(=O)c3c(Nc4ccc(I)cc4F)n(C)c(=O)c(C)c32)c1 as the entry.
Reply text: 1.74

Inquiry: Tell me its drug sensitivity score given N#Cc1ccc(C(c2ccc(C#N)cc2)n2cncn2)cc1 as the entry.
Reply text: 0

Inquiry: Tell me its drug sensitivity score given COc1cc2c(NC3CCN(C(C)C)CC3)nc(C3CCCCC3)nc2cc1OCCCN1CCCC1 as the entry.
Reply text: 6.94

Inquiry: Tell me its drug sensitivity score given COc1cc2nccc(Oc3ccc(NC(=O)Nc4cc(C)on4)c(Cl)c3)c2cc1OC as the entry.
Reply text: 0
